Origin of the recorded values: ChEMBL document CHEMBL4196023

Molecular target: LSD1/CoREST complex (Homo sapiens) (UniProt O60341+Q9UKL0)
Sequence (Q9UKL0 whole entry, looked up, other chains not shown): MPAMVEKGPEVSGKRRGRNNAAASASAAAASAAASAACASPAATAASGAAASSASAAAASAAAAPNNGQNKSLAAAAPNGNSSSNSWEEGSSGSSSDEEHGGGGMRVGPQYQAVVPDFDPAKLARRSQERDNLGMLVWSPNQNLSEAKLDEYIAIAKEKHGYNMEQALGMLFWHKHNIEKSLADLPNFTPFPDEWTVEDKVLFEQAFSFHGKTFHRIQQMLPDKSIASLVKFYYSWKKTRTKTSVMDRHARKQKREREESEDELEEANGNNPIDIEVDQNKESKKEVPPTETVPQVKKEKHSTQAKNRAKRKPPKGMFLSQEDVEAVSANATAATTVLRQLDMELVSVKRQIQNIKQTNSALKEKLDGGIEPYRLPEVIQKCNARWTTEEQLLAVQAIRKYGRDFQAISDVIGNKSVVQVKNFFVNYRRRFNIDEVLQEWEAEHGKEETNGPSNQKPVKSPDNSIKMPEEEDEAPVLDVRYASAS
Assay: Inhibition of recombinant human LSD1/CoREST at 500 nM preincubated for 5 mins followed by ART-(N,N-dimethyl-K)-QTARKSTGGKAPRKQLA substrate addition measured after 25 mins by fluorescence assay relative to control
Positions of bridges follow the written chain, without caps; N, C: chain ends. Residues, ends and D or L forms follow the SMILES beside them.
Measure: inhibition (%)
Give your result in % as a bare value.

CSCC[C@H](NC(=O)[C@H](C)NC(=O)[C@H](CCCNC(=N)N)NC(=O)[C@H](C)N)C(=O)N[C@H]1CCCCNC(=O)CC[C@@H](C(=O)N[C@H](C(=O)NCC(=O)NCC(=O)N[C@@H](CCCCN)C(=O)N[C@@H](C)C(=O)N2CCC[C@H]2C(=O)N[C@@H](CCCNC(=N)N)C(=O)N[C@@H](CCCCN)C(N)=O)[C@@H](C)O)NC(=O)[C@H](CCCCN)NC(=O)[C@H](CCCNC(=N)N)NC(=O)[C@H](C)NC(=O)[C@H]([C@@H](C)O)NC1=O (H-ARAMKTARKETGGKAPRK-NH2; lactam 5-10); 98
CSCC[C@H](NC(=O)[C@H](C)NC(=O)[C@H](CCCNC(=N)N)NC(=O)[C@H](C)N)C(=O)N[C@H]1CCCCNC(=O)CC[C@@H](C(=O)N[C@H](C(=O)NCC(=O)NCC(=O)N[C@@H](CCCCN)C(=O)N[C@@H](C)C(N)=O)[C@@H](C)O)NC(=O)[C@H](CCCCN)NC(=O)[C@H](CCCNC(=N)N)NC(=O)[C@H](C)NC(=O)[C@H]([C@@H](C)O)NC1=O (H-ARAMKTARKETGGKA-NH2; lactam 5-10); 73.4
CSCC[C@H](NC(=O)[C@H](C)NC(=O)[C@H](CCCNC(=N)N)NC(=O)[C@H](C)N)C(=O)N[C@H]1CCCCNC(=O)CC[C@@H](C(=O)N[C@H](C(=O)NCC(N)=O)[C@@H](C)O)NC(=O)[C@H](CCCCN)NC(=O)[C@H](CCCNC(=N)N)NC(=O)[C@H](C)NC(=O)[C@H]([C@@H](C)O)NC1=O (H-ARAMKTARKETG-NH2; lactam 5-10); 67.3

What does the record list as inhibition for CSCC[C@H](NC(=O)[C@H](C)NC(=O)[C@H](CCCNC(=N)N)NC(=O)[C@H](C)N)C(=O)N[C@H]1CCCCNC(=O)CC[C@@H](C(N)=O)NC(=O)[C@H](CCCCN)NC(=O)[C@H](CCCNC(=N)N)NC(=O)[C@H](C)NC(=O)[C@H]([C@@H](C)O)NC1=O (H-ARAMKTARKE-NH2; lactam 5-10) ?
59.8
